Tested on: HeLa cells
Assay: Potentiation Factor (PF50): MMS growth inhibition, SRB assay
Assay type: cell-based
Conditions: MMS 0-10 μg/ml, PARP inhibitor at 30 nM, ratio IC50 control / IC50 + inhibitor
readout_kind: PF50 (30 nM)

1) O=C(c1cccc(Cc2n[nH]c(=O)c3c(F)ccc(F)c23)c1)N1CCC(Oc2ccccn2)CC1 ... 2.2
2) O=C(c1cc(Cc2n[nH]c(=O)c3ccccc23)ccc1F)N1CCC(Oc2ccc(F)cc2)CC1 ... 1.9
3) COC1CCN(C(=O)c2cc(Cc3n[nH]c(=O)c4ccc(N)cc34)ccc2F)CC1 ... 1.0
4) O=C(c1cc(Cc2n[nH]c(=O)c3ccccc23)ccc1F)N1CCC(Oc2ccncc2)CC1 ... 3.0
